Data provenance: patent EP4813463A2

Assay: Pharmacokinetic study in rats
Format: in vivo
Details: rat, plasma; Sprague-Dawley rats, intravenous, 2 mg/kg, solution
value-kind: Vd (L/kg)
One number for each entry, in L/kg.

Qu. State its Vd for this compound: [2H]C([2H])([2H])NC(=O)c1cnc(NC(=O)C2CC2)cc1Nc1nn(C)c2ccc([C@H](O)C(F)(F)F)c(OC)c12 [Example 49A]
Ans. 2.2

---

Test: Pharmacokinetic study in rats
Format: in vivo
Details: rat, plasma; Sprague-Dawley rats, intravenous, 1 mg/kg, solution
value-kind: clearance (mL/min/kg)
Give bare numbers, in mL/min/kg.

Qu. Please list clearance recorded for the compound [2H]C([2H])([2H])NC(=O)c1cnc(NC(=O)C2CC2)cc1Nc1cnn2ccc([C@H](O)C(F)(F)F)c(OC)c12 [Example 7A]
Ans. 53.2
